Data credit: PubChem BioAssay (NCI)

test system: KM12 colon; assay: NCI-60 one-dose screen, 48 h; details: 10 µM
The panel holds about 83,000 compounds, 20% with a hit somewhere; the sample as a whole holds those more often. Active and inactive are the calls of the source. The calls were made as follows: active = growth percent below 10; inactive = the rest.
Outcome codes: T (active), F (inactive)

Compound	Class assignment
C/C(=N\O)c1ccc(NC(=O)CSc2nnc(-c3ccccc3)n2-c2ccccc2)cc1	F
Cc1cccc(N=Cc2ccccc2O)c1C	F
CC[N+](CC)=c1ccc2nc3c(cc(NCc4ccccc4)c4ccccc43)oc-2c1	T
COc1ccc(N(C)c2ncnc3occ(C)c23)cc1	T
Cn1c2ccccc2c2c3[nH][nH]c(=O)c3c3c4ccccc4[nH]c3c21	F
O=C1c2c(c3c4ccccc4n(CCCCCCN4CCOCC4)c3c3[nH]c4ccccc4c23)C(=O)N1O	F
CCN1CCN(CCC(=O)Nc2cccc(-n3cc(-c4ccncc4)c(-c4ccc(Cl)c(OC)c4)n3)c2)CC1	F
CCCCN(CCCC)C(=O)[C@H](CC)[C@@H]1CC[C@@H](C)[C@@H]([C@H](C)[C@@H](O)[C@@H](C)C(=O)[C@H](CC)C2O[C@]3(C=C[C@@H](O)[C@]4(CC[C@@](C)([C@H]5CC[C@](O)(CC)[C@H](C)O5)O4)O3)[C@H](C)C[C@@H]2C)O1 (stereo not given in full)	F
Cc1cc(O)ccc1C1=NN(c2ccc(S(C)(=O)=O)cc2)C(=O)CC1	F
COc1ccc(/C(C#N)=C/c2ccccc2OC)cc1	F
COc1ccc(/C=C/c2nnc(/C=C/c3ccc(OC)c(OC)c3)o2)cc1OC	F
CC(=O)OC1CC2C(C)(C)CCC[C@]2(C)C2=C1C(O)=C(C(C)C)C(=O)C2=O (stereo not given in full)	T
CC(=O)N[C@H](C(=O)N[C@@H](CCCNC(=N)N)C(=O)N[C@@H](CCCCN)C(=O)N[C@@H](CCCNC(=N)N)C(=O)NC(C(=O)N[C@@H](CC(C)C)C(=O)N[C@@H](CCCNC(=N)N)C(=O)N[C@@]1(C)CCC/C=C\CCC[C@@](C)(C(=O)N[C@@H](CCCNC(=N)N)C(=O)N[C@@H](CCC(=O)O)C(=O)N[C@@H](CC(C)C)C(=O)N[C@H](C(=O)N[C@@H](CCC(=O)O)C(N)=O)C(C)C)NC(=O)[C@H](CCC(N)=O)NC(=O)[C@H](CC(C)C)NC(=O)[C@H](CC(C)C)NC1=O)[C@@H](C)O)C(C)C (stereo not given in full)	T
c1ccc(CCCCc2ccc3ccccc3n2)cc1	F
COc1ccc(NC(=O)C2CC3C=CC2C3)c([N+](=O)[O-])c1 (stereo not given)	F

---

system: SR leukemia; experiment: NCI-60 one-dose screen, 48 h (100 = growth as untreated, 0 = no growth, -100 = all killed); settings: 10 µM
Compounds without any hit were thinned out: in the full panel of roughly 83,000, 20% have a hit.
Attribute measured: growth (%)

> print(dat)
                           structure.smiles  unit.tag  experimental.value
1  CN1CCN(CCC(=O)Nc2cccc(-n3cc(-c4ccncc4)c(-c4ccc(Cl)c(O)c4)n3)c2)CC1         %                 5.5
2  O=C(Nc1ccc(OS(=O)(=O)c2ccccc2)cc1)C1CCCCC1         %                47.2
3  O=C(CCc1nnc2sc(-c3cc(O)c(O)c(O)c3)nn12)c1nc2ccccc2[nH]1         %                49.6
4  CN(C)CCOc1cccc(-c2nc3sccn3c2-c2ccnc(S(C)(=O)=O)n2)c1         %                 102
5           Cc1cc(CCNC=O)c(C)c2c1sc1ccccc12         %                89.4
6  O=C1/C=C/[C@@H](O)[C@@H]2C[C@@H](O)C[C@H]2/C=C/CCC[C@H](CCc2ccc(C(F)(F)F)cc2)O1         %                1.16
7  CN1CCc2c(sc3nc4n(-c5ccc(Cl)cc5)c(=O)[nH]n4c(=O)c23)C1         %                97.6
8  Cn1c2ccccc2c2c3[nH][nH]c(=O)c3c3c4ccccc4[nH]c3c21         %               -12.1
9  C[C@@H](O)[C@H]1C(=O)N2C(C(=O)O)=C(SCCN=CN)C[C@H]12         %               -5.48

---

Test system: A498 renal
Experiment: NCI-60 one-dose screen, 48 h
Details: 10 µM
Procedure: Growth inhibition of the A498 human tumor cell line is measured as a screen for anti-cancer activity. Cells are grown in 96 well plates and exposed to the test compound for 48 hours. Compounds are tested at a single concentration, which is 10^-5 M for most compounds. The reported endpoint is percent growth (GI% or GIPRCNT), where numbers from 0 - 100% represent growth inhibition, and numbers from -100% - 0 represent cell death. For example, a value of 40 represents 60% growth inhibition. […]
The panel holds about 83,000 compounds, 20% with a hit somewhere; the sample as a whole holds those more often. Activity calls are given as the source filed them. The calls were made as follows: active = growth percent below 10; inactive = the rest.
Outcome codes: YES for active, NO for inactive

Molecule	Measurement target	Class assignment
Cc1cc(Cl)ccc1Nc1nc(C(F)(F)F)ccc1C(=O)N/N=C/c1cccc(O)c1	A498 renal	YES
CC(=O)Nc1ccc(S(=O)(=O)c2ccnc3cc(Cl)ccc23)cc1	A498 renal	NO
CCN(CCCNc1cc2c(c(N)c1S(=O)(=O)O)C(=O)c1ccccc1C2=O)c1ccccc1	A498 renal	NO
NC(N)=N/N=C(\N=Nc1ccccc1)c1ccc(Cl)cc1	A498 renal	NO
COc1ccc2nc3cc(Cl)ccc3c(NCCCNCCO)c2c1	A498 renal	YES
CCn1c(SCc2ccc(C)cc2)nnc1-c1nn(-c2ccc(Cl)cc2Cl)c(-c2ccc(Cl)cc2)c1C	A498 renal	NO
CC(=O)O[C@@]12CO[C@@H]1C[C@H](O)[C@@]1(C)C(=O)[C@H](O)C3=C(C)[C@@H](OC(=O)[C@H](O)[C@@H](NC(=O)OC(C)(C)C)c4ccccc4)C[C@@](O)([C@@H](OC(=O)c4ccccc4)C12)C3(C)C (stereo not given in full)	A498 renal	NO
COc1cc(-c2nn(-c3cccc(NC(=O)NCCNC(=O)c4cccc(C(F)(F)F)c4)c3)cc2-c2ccncc2)ccc1Cl	A498 renal	NO
COc1cc(N)c2ncccc2c1SC	A498 renal	NO
Nc1cc(-c2ccncc2)c[nH]c1=O	A498 renal	NO
NC1=NC(c2ccc(Cl)cc2)C2=C(N1)/C(=C/c1ccc(Cl)cc1)CCC2 (stereo not given)	A498 renal	NO
CN(C)CCCOc1ccccc1NC1=C(Cl)C(=O)C(Nc2ccccc2OCCCN(C)C)=C(Cl)C1=O	A498 renal	NO
O=C1/C=C/[C@@H](O)[C@@H]2C[C@@H](O)C[C@H]2/C=C/CCC[C@H](CCc2ccc(C(F)(F)F)cc2)O1	A498 renal	YES
CSc1nc2c(c(=O)n1C)CN(Cc1ccccc1)C(=O)CN2	A498 renal	NO
Cc1ccc(C(SCC(N)C(=O)O)(c2ccc(C)cc2)c2ccc(C)cc2)cc1 (stereo not given)	A498 renal	NO
C[C@]12CC[C@@H]3c4ccc(OS(=O)(=O)O)cc4CC[C@H]3[C@@H]1CC[C@@H]2NS(=O)(=O)c1ccc(-c2ccccc2)cc1	A498 renal	NO
Cc1ccc(C2NC(=S)N3C(c4ccc(C)cc4)NC(=S)N23)cc1 (stereo not given)	A498 renal	NO
OCCn1cccn1	A498 renal	NO
O=c1[nH]c(=O)n(C2C[C@H](O)[C@@H](CO)O2)cc1C(F)(F)F (stereo not given in full)	A498 renal	NO
CC(C)Cc1ccc([C@H](C)C(=O)O)cc1	A498 renal	NO
CC(=O)[C@H]1CC[C@]2(C)[C@@H]1CC[C@@H]1[C@@]3(C)CC(CCC#N)(CCC#N)C(=O)C(C)(C)[C@@H]3CC[C@]12C	A498 renal	NO
S=C1N(c2ccccc2)CN(C2CCCCC2)CN1c1ccccc1	A498 renal	NO
CC(C)(C)OC(=O)CN1CCc2c(sc3ncnc(N/N=C/c4cccc5ccccc45)c23)C1	A498 renal	NO
COc1cc(/C=C2\CCCC3=C2NC(N)=NC3c2cc(OC)c(OC)c(OC)c2)cc(OC)c1OC (stereo not given)	A498 renal	YES
CC1=NN(C(=O)c2nn(-c3ccc(Cl)cc3)cc2O)C(=O)C1	A498 renal	NO
CN(C)CCOc1cccc(NC2=C(Cl)C(=O)C(Nc3cccc(OCCN(C)C)c3)=C(Cl)C2=O)c1	A498 renal	NO
c1ccc(CCCCc2ccc3ccccc3n2)cc1	A498 renal	NO
CC1(C)N=C(N)N=C(N)N1c1cccc(C#N)c1	A498 renal	NO
CSc1ccc(-c2cc(-c3ccc(NC(=O)CCCN4CCCC4)cc3)nc(-c3ccc(NC(=O)CCCN4CCCC4)cc3)c2)cc1	A498 renal	NO
COc1ccc(C(c2ccc(OCCN(C)C)cc2)c2cc3ccccc3c3ccccc23)cc1 (stereo not given)	A498 renal	NO
CCN(CC)CCCC(C)Nc1c2ccc(Cl)cc2nc2ccc(OC)cc12 (stereo not given)	A498 renal	NO
COc1ccc(-c2onc(N)c2-c2cc(OC)c3c(c2)OCO3)cc1	A498 renal	NO
C[C@@H](C[C@H](CCO)c1ccccc1)c1ccc2ccccc2c1	A498 renal	YES
O=C1c2ccccc2C(=O)c2c1ccc(C(Br)Br)c2[N+](=O)[O-]	A498 renal	NO
COc1cccc(N=Nc2cccc(OC)c2)c1	A498 renal	NO
Cc1ccc(S(=O)(=O)N/N=C2\CCCc3ccccc32)cc1	A498 renal	NO
Nc1nc(Cl)nc2c1ncn2C1O[C@H](CO)[C@@H](O)[C@@H]1F (stereo not given in full)	A498 renal	NO
Cc1c(Cl)cccc1NC(=O)CN1CCOCC1	A498 renal	NO
COc1ccc(C2=Cn3c(CCC(=O)c4nc5ccccc5[nH]4)nnc3SC2)cc1	A498 renal	NO
CCOC(=O)/C(=C(\C)N)C1CC(=O)NC1=O (stereo not given)	A498 renal	NO
